Values were extracted from PubChem BioAssay (NCATS).

activation values, listed per item
molecular target: Glucocorticoid receptor (Homo sapiens); test: qHTS assay for small molecule agonists of glucocorticoid receptor signaling (AID 588532); settings: HeLa MMTV-bla, beta-lactamase ratio, agonist, 18 h; active compounds read high; percent of dexamethasone control, DMSO zero;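 also: 100% = dexamethasone at 0.1 µM and 0% = DMSO only wells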
Records with an inconclusive call do not appear. Calls of active or inactive are those of the source. Calls follow the shape of the dose curve; as a rule, active = well fitted curve in the direction sought with a large enough effect in the signal ratio, with a control signal flat; inconclusive = small, poorly fitted or top-dose-only effect, or a change in a side signal; inactive = no such curve, though single readings can be large or run the other way; the % refers to the signal ratio.

CC1CC(=O)O1 (stereo not given)	4.16% (inactive)
S=c1[nH]c2ccccc2[nH]1	-3.9% (inactive)
O=[N+]([O-])c1ccccc1CCl	1.82% (inactive)

query: What value of activation has been recorded for this entry: "CC(C)OC(=O)Cc1ccccc1"
result: 0.809% (inactive)

query: What value of activation has been recorded for this entry: "N#CC(Cl)(Cl)Cl"
result: 5.98% (inactive)

query: What value of activation has been recorded for this entry: "Oc1ccc(Cl)c(Cl)c1Cl"
result: 6.93% (inactive)

query: What value of activation has been recorded for this entry: "Cc1cc(Cl)ccc1O"
result: 0.519% (inactive)

query: What value of activation has been recorded for this entry: "Cc1cc(N=Nc2ccccc2C)ccc1N"
result: -7.11% (inactive)

query: What value of activation has been recorded for this entry: BrCC(Br)C1CCC(Br)C(Br)C1 (stereo not given)
result: 3.61% (inactive)

query: What value of activation has been recorded for this entry: "Cc1cnc[nH]1"
result: -8.66% (inactive)

query: What value of activation has been recorded for this entry: "CCOP(=S)(OCC)Oc1nc(Cl)c(Cl)cc1Cl"
result: 0.796% (inactive) [middle of 4 runs]

query: What value of activation has been recorded for this entry: "O=C(O)c1cc(Cl)ccc1Cl"
result: -4.37% (inactive)

query: What value of activation has been recorded for this entry: "C[N+](=O)[O-]"
result: -0.802% (inactive)

query: What value of activation has been recorded for this entry: "COC(=O)Nc1cccc(OC(=O)Nc2cccc(C)c2)c1"
result: -3.09% (inactive)

query: What value of activation has been recorded for this entry: "COc1c(C(C)(C)C)cc([N+](=O)[O-])c(C)c1[N+](=O)[O-]"
result: -4.08% (inactive)

* * *

Test: Cell Viability - LYMP2-003 (AID 965);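 also: cells exposed to compounds for 24 h before reading; 0% = DMSO only and full effect = 92 µM tetraoctylammonium bromide; nearly all actives have a fitted effect of over 50% in size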
Settings: LYMP2-003 lymphoblastoid cell viability; series mostly up to 92.2 µM
Source text: NIH Chemical Genomics Center [NCGC] NIH Molecular Libraries Screening Centers Network [MLSCN] National Institutes of Environmental Health Sciences [NIEHS] National Toxicology Program [NTP] We have developed a 1536-well cell-based assay for quantitative high throughput screening (qHTS) against a number of cell lines to determine in vitro cytotoxicity of small molecules. […] 8. Detection; Luminescence; Viewlux plate reader […]
Results filed as inconclusive are left out. The source made the active and inactive calls. Calls follow the shape of the dose curve; as a rule, active = well fitted cell-killing curve with a large enough effect; inconclusive = small, poorly fitted or top-dose-only effect, or effect the other way; inactive = flat fitted curve, though single readings scatter.
reported property: outcome

In the examples that follow, each entry is paired with its recorded outcome.
O=[N+]([O-])c1cc(Cl)c(Cl)c(Cl)c1	inactive
C=CCCl	inactive
Clc1ccc(Cl)c(Cl)c1	inactive
O=[N+]([O-])c1ccc(Cl)c(Cl)c1Cl	inactive
CC(=O)NNc1ccccc1	inactive

query: What value of outcome has been recorded for this entry: "CCNCC"
result: inactive

query: What value of outcome has been recorded for this entry: "O=[N+]([O-])CCO"
result: inactive

query: What value of outcome has been recorded for this entry: "Nc1ccc(-c2ccc(N)cc2)cc1"
result: inactive

query: What value of outcome has been recorded for this entry: "O=C(O)c1cccc(Cl)c1"
result: inactive
